Recorded inhibition at 10 µM, one value per entry.
Target: recombinant human plasminogen activator inhibitor-1 (PAI-1) (Homo sapiens)
Construct: purchased Molecular Innovations, Royal Oak, Mich
Experiment: Primary screen for the PAI-1 inhibition (residual tPA activity, Spectrozyme-tPA chromogenic substrate)
Type: biochemical
Settings: 10 μM test compound; 140 nM PAI-1, 70 nM tPA, pH 6.6
Property Name: inhibition at 10 µM (%)

{"columns": ["Structure String", "Test System", "Recorded Measurement"],
 "data": [
  ["Cc1ccc(C)n1-c1ccc(Cn2c(C(=O)O)c(-c3ccccc3)c3ccccc32)cc1", "recombinant human plasminogen activator inhibitor-1 (PAI-1) (Homo sapiens)", 53],
  ["CS(=O)(=O)Nc1ccc(Cn2c(C(=O)O)c(-c3cccs3)c3ccccc32)cc1", "recombinant human plasminogen activator inhibitor-1 (PAI-1) (Homo sapiens)", 45],
  ["O=C(O)c1c(-c2ccccc2)c2ccccc2n1Cc1ccc(Nc2ccccc2)cc1", "recombinant human plasminogen activator inhibitor-1 (PAI-1) (Homo sapiens)", 26],
  ["O=C(O)c1cc2ccccc2n1-c1ccc(NS(=O)(=O)c2ccc(OC(F)(F)F)cc2)cc1", "recombinant human plasminogen activator inhibitor-1 (PAI-1) (Homo sapiens)", 39],
  ["O=C(O)c1ccc2ccn(Cc3ccc(NS(=O)(=O)c4ccc(-c5ccccc5)cc4)cc3)c2c1", "recombinant human plasminogen activator inhibitor-1 (PAI-1) (Homo sapiens)", 26],
  ["CC(C)(C)c1ccc(S(=O)(=O)Nc2ccc(Cn3ccc4c(C(=O)O)cccc43)cc2)cc1", "recombinant human plasminogen activator inhibitor-1 (PAI-1) (Homo sapiens)", 27]
]}

* * *

Target: recombinant human plasminogen activator inhibitor-1 (PAI-1) (Homo sapiens, UniProt P05121)
Construct: purchased Molecular Innovations, Royal Oak, Mich
Sequence (P05121 24-402): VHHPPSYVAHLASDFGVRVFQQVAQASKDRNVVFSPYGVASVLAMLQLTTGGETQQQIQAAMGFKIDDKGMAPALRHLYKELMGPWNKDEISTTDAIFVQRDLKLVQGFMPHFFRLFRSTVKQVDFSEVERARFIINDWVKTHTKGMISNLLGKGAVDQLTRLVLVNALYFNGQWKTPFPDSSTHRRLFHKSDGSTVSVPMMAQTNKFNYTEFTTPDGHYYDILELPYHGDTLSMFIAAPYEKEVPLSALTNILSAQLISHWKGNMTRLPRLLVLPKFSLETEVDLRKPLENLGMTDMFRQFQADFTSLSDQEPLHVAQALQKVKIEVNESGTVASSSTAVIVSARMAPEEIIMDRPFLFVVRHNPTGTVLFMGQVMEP
Assay: Primary screen for the PAI-1 inhibition (residual tPA activity, Spectrozyme-tPA chromogenic substrate)
Format: biochemical
Details: 25 μM test compound; 140 nM PAI-1, 70 nM tPA, pH 6.6
Tick Y if inhibition at 25 µM is 40% or greater. Tick N if inhibition at 25 µM is less than 40%.

{"columns": ["Structure String", "Test System", "Class Name"],
 "data": [
  ["O=C(O)c1c(-c2cccs2)c2ccccc2n1Cc1ccc(NS(=O)(=O)c2ccccc2)cc1", "recombinant human plasminogen activator inhibitor-1 (PAI-1) (Homo sapiens, UniProt P05121)", "Y"],
  ["O=C(O)c1cc2ccccc2n1-c1ccc(-n2cccc2)cc1", "recombinant human plasminogen activator inhibitor-1 (PAI-1) (Homo sapiens, UniProt P05121)", "N"],
  ["O=C(O)c1c(-c2ccccc2)c2ccccc2n1Cc1ccc(Nc2ccccc2)cc1", "recombinant human plasminogen activator inhibitor-1 (PAI-1) (Homo sapiens, UniProt P05121)", "N"],
  ["CS(=O)(=O)Nc1ccc(Cn2c(C(=O)O)c(-c3cccs3)c3ccccc32)cc1", "recombinant human plasminogen activator inhibitor-1 (PAI-1) (Homo sapiens, UniProt P05121)", "Y"],
  ["O=C(O)c1c(-c2cccs2)c2ccccc2n1Cc1ccc(Nc2ccccc2)cc1", "recombinant human plasminogen activator inhibitor-1 (PAI-1) (Homo sapiens, UniProt P05121)", "N"],
  ["O=C(O)c1ccc2c(ccn2Cc2ccc(NS(=O)(=O)c3ccc(-c4ccccc4)cc3)cc2)c1", "recombinant human plasminogen activator inhibitor-1 (PAI-1) (Homo sapiens, UniProt P05121)", "N"],
  ["Cc1ccc(C)n1-c1ccc(Cn2c(C(=O)O)c(-c3ccccc3)c3ccccc32)cc1", "recombinant human plasminogen activator inhibitor-1 (PAI-1) (Homo sapiens, UniProt P05121)", "Y"],
  ["O=C(O)c1ccc2ccn(Cc3ccc(NS(=O)(=O)c4ccc(-c5ccccc5)cc4)cc3)c2c1", "recombinant human plasminogen activator inhibitor-1 (PAI-1) (Homo sapiens, UniProt P05121)", "N"],
  ["O=C(O)c1cc2ccccc2n1Cc1ccc(NS(=O)(=O)c2ccc(-c3ccccc3)cc2)cc1", "recombinant human plasminogen activator inhibitor-1 (PAI-1) (Homo sapiens, UniProt P05121)", "Y"],
  ["O=C(O)c1c(-c2ccccc2)c2ccccc2n1Cc1ccc(NS(=O)(=O)c2ccccc2)cc1", "recombinant human plasminogen activator inhibitor-1 (PAI-1) (Homo sapiens, UniProt P05121)", "Y"],
  ["O=C(O)c1cn(Cc2ccc(NS(=O)(=O)c3ccc(-c4ccccc4)cc3)cc2)c2ccccc12", "recombinant human plasminogen activator inhibitor-1 (PAI-1) (Homo sapiens, UniProt P05121)", "N"],
  ["CC(C)(C)c1ccc(S(=O)(=O)Nc2ccc(Cn3ccc4c(C(=O)O)cccc43)cc2)cc1", "recombinant human plasminogen activator inhibitor-1 (PAI-1) (Homo sapiens, UniProt P05121)", "Y"],
  ["O=C(O)c1cccc2c1ccn2Cc1ccc(NS(=O)(=O)c2ccc(-c3ccccc3)cc2)cc1", "recombinant human plasminogen activator inhibitor-1 (PAI-1) (Homo sapiens, UniProt P05121)", "N"],
  ["CS(=O)(=O)Nc1ccc(Cn2c(C(=O)O)c(-c3ccccc3)c3ccccc32)cc1", "recombinant human plasminogen activator inhibitor-1 (PAI-1) (Homo sapiens, UniProt P05121)", "Y"],
  ["CC(C)(C)c1ccc(S(=O)(=O)Nc2ccc(Cn3ccc4cc(C(=O)O)ccc43)cc2)cc1", "recombinant human plasminogen activator inhibitor-1 (PAI-1) (Homo sapiens, UniProt P05121)", "N"],
  ["CC(C)(C)c1ccc(S(=O)(=O)Nc2ccc(Cn3cc(C(=O)O)c4ccccc43)cc2)cc1", "recombinant human plasminogen activator inhibitor-1 (PAI-1) (Homo sapiens, UniProt P05121)", "N"]
]}

* * *

Target: recombinant human plasminogen activator inhibitor-1 (PAI-1) (Homo sapiens)
Construct: purchased Molecular Innovations, Royal Oak, Mich
Test: Primary screen for the PAI-1 inhibition (residual tPA activity, Spectrozyme-tPA chromogenic substrate)
Assay type: biochemical
Details: 10 μM test compound; 140 nM PAI-1, 70 nM tPA, pH 6.6

{"columns": ["Structure String", "Test System", "Unit Abbreviation", "inhibition at 10 µM"],
 "data": [
  ["CC(C)(C)c1ccc(S(=O)(=O)Nc2ccc(Cn3cc(C(=O)O)c4ccccc43)cc2)cc1", "recombinant human plasminogen activator inhibitor-1 (PAI-1) (Homo sapiens)", "%", 19],
  ["O=C(O)c1cccc2c1ccn2Cc1ccc(NS(=O)(=O)c2ccc(-c3ccccc3)cc2)cc1", "recombinant human plasminogen activator inhibitor-1 (PAI-1) (Homo sapiens)", "%", 26],
  ["CS(=O)(=O)Nc1ccc(Cn2c(C(=O)O)c(-c3ccccc3)c3ccccc32)cc1", "recombinant human plasminogen activator inhibitor-1 (PAI-1) (Homo sapiens)", "%", 42],
  ["O=C(O)c1cc2ccccc2n1-c1ccc(-n2cccc2)cc1", "recombinant human plasminogen activator inhibitor-1 (PAI-1) (Homo sapiens)", "%", 15],
  ["O=C(O)c1cn(Cc2ccc(NS(=O)(=O)c3ccc(-c4ccccc4)cc3)cc2)c2ccccc12", "recombinant human plasminogen activator inhibitor-1 (PAI-1) (Homo sapiens)", "%", 25],
  ["O=C(O)c1c(-c2cccs2)c2ccccc2n1Cc1ccc(NS(=O)(=O)c2ccccc2)cc1", "recombinant human plasminogen activator inhibitor-1 (PAI-1) (Homo sapiens)", "%", 50],
  ["O=C(O)c1c(-c2cccs2)c2ccccc2n1Cc1ccc(Nc2ccccc2)cc1", "recombinant human plasminogen activator inhibitor-1 (PAI-1) (Homo sapiens)", "%", 25],
  ["O=C(O)c1c(-c2ccccc2)c2ccccc2n1Cc1ccc(NS(=O)(=O)c2ccccc2)cc1", "recombinant human plasminogen activator inhibitor-1 (PAI-1) (Homo sapiens)", "%", 51]
]}

* * *

Molecular target: human PAI-1 (Homo sapiens, UniProt P05121)
Sequence (P05121 24-402): as above
Property Name: IC50

{"columns": ["Structure String", "Recorded Measurement"],
 "data": [
  ["Cc1ccc(C)n1-c1ccc(Cn2c(C(=O)O)c(-c3ccccc3)c3ccccc32)cc1", "2510 nM"]
]}
